meta.source: patent US20140163023A1

# reported IC50; entries follow
Biological target: PI3Kβ (Homo sapiens, UniProt P42338)
Construct: endogenous in cells; host or cells: Jurkat (ATCC TIB-152, clone E6-1) and Ramos (ATCC CRL-1596), 1:1 lysate mix
Sequence (P42338 whole entry): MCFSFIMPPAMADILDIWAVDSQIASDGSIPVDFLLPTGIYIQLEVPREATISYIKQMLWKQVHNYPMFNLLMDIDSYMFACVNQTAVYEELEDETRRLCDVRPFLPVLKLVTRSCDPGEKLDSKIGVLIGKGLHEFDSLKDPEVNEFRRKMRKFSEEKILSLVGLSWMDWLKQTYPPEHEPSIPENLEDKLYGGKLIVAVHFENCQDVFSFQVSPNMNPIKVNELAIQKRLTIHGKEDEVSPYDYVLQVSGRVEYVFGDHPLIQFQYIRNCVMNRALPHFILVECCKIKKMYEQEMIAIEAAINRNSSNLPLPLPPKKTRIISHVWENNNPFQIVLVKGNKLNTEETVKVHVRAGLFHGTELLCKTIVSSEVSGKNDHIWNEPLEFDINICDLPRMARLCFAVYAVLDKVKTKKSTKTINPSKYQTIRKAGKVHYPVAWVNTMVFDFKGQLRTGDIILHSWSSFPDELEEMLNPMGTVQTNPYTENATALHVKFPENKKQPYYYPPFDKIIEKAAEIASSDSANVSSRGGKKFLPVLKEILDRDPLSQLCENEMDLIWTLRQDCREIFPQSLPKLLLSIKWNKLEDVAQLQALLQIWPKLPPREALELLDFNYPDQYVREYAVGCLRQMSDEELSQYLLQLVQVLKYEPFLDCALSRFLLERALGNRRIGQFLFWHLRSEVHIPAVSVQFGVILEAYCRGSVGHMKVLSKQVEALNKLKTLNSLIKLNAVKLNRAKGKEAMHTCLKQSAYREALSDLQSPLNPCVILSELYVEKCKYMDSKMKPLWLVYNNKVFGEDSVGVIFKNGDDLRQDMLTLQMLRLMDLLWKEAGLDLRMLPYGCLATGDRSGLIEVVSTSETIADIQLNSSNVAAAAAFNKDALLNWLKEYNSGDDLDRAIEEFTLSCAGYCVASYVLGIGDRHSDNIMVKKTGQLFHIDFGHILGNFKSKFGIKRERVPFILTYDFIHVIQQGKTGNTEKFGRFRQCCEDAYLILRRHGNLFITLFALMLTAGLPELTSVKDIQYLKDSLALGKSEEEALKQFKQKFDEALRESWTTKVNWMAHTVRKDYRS
Sequence (P27986 whole entry partner): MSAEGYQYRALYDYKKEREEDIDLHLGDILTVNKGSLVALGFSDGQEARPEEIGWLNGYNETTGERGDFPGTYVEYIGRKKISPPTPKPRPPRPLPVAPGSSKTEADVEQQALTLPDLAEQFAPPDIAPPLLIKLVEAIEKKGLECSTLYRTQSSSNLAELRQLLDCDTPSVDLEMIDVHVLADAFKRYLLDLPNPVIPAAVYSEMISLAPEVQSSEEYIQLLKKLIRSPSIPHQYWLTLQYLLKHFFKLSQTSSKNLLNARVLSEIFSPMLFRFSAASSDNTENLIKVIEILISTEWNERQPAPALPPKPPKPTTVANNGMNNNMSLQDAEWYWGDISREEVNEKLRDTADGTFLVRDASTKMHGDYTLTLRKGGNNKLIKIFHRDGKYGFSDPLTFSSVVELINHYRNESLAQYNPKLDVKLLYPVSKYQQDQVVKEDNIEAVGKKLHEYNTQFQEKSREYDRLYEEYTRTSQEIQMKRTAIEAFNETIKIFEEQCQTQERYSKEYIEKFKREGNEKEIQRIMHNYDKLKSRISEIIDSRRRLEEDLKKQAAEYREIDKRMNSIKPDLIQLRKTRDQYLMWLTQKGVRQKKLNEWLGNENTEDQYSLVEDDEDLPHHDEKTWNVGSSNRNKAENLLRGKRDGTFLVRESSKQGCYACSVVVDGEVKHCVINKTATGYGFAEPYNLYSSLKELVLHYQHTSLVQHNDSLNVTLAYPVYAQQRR
Experiment: kinobeads assay, PI3Kβ
Format: binding
Conditions: 1:1 mix of Jurkat and Ramos cell lysates, read-out: Inhibition values (IC50 in μM) as determined in the kinobeads assay, PI3Kβ
Experimental: The compounds of the present invention as described were tested in the mTOR kinobeads assay as described below. […] Bound proteins were then eluted and the presence of mTOR, PI3Kα, PI3Kβ, PI3Kγ, PI3Kδ and DNA-dependent protein kinase (DNA-PK) was detected and quantified using a specific antibody in a dot blot procedure and the Odyssey infrared detection system. Dose response curves for individual kinases were generated and IC50 values calculated. […]

Consider the reported IC50 for these compounds:
| compound | IC50 |
| --- | --- |
| CC(O)CNC(=O)Nc1ccc(-c2nc(N3CCOC[C@@H]3C)nc3c2CN(C(C)C)C3)cc1 (stereo partly shown) [Example 45] | > 100 µM |
| CCNC(=O)Nc1ccc(-c2nc(N3CCOCC3)nc3c2CN(C(=O)OCC)C3)cc1 [Example 7] | > 100 µM |
| CC(=O)N1Cc2nc(N3CCOC[C@@H]3C)nc(-c3ccc(NC(=O)NCCO)cc3)c2C1 [Example 39] | 10 to 100 µM |

Query: # query: IC50 | item C[C@H]1COCCN1c1nc2c(c(-c3ccc(NC(=O)Nc4cccc(O)n4)cc3)n1)CNC2 [Example 25] | system: PI3Kβ (Homo sapiens, UniProt P42338)
Result: 1 to 10 µM

###

# reported IC50; entries follow
Target: PI3Kγ (Homo sapiens, UniProt P48736)
Construct: endogenous in cells; host or cells: Jurkat (ATCC TIB-152, clone E6-1) and Ramos (ATCC CRL-1596), 1:1 lysate mix
Sequence (P48736 whole entry): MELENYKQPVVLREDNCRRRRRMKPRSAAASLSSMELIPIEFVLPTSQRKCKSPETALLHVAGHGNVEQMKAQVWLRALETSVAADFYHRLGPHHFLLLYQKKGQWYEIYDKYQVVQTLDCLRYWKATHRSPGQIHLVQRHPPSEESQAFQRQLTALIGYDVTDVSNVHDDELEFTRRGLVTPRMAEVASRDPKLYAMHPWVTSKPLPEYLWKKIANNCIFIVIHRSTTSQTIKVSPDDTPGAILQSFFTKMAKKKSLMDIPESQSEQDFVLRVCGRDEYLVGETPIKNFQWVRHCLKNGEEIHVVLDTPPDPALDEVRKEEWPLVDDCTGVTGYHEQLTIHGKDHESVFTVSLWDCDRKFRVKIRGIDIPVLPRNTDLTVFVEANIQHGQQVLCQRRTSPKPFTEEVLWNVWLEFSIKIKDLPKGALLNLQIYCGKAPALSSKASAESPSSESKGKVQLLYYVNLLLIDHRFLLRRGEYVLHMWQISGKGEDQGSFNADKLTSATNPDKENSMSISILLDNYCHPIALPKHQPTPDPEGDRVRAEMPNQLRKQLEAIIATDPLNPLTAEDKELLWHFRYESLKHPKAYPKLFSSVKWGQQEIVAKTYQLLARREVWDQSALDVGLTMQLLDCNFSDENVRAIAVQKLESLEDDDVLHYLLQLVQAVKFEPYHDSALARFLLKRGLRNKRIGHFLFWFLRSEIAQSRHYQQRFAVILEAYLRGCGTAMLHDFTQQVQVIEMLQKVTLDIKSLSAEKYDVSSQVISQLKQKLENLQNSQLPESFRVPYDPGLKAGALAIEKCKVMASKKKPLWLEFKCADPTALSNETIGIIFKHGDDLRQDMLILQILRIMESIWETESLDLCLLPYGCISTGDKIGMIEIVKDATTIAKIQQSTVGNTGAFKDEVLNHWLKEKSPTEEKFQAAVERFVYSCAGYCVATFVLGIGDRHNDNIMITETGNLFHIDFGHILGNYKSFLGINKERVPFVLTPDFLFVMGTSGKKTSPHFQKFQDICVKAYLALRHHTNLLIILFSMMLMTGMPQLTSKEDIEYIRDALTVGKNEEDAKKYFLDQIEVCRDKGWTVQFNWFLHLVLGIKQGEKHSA
Assay: kinobeads assay, PI3Kγ
Type: binding
Details: 1:1 mix of Jurkat and Ramos cell lysates, read-out: Inhibition values (IC50 in μM) as determined in the kinobeads assay, PI3Kγ
Counter-ions that a name gives are not always drawn.

Consider the reported IC50 for these compounds:
| compound | IC50 |
| --- | --- |
| CC(=O)N1Cc2nc(N3CCOC[C@@H]3C)nc(-c3ccc(NC(=O)NC4CC4)cc3)c2C1 | > 100 µM |
| C[C@H]1COCCN1c1nc2c(c(-c3ccc(NC(=O)NC4CC4)cc3)n1)CN(C(=O)CCCN)C2 | > 100 µM |
| CC(C)N1Cc2nc(N3CCOC[C@@H]3C)nc(-c3ccc(NC(=O)NCCC#N)cc3)c2C1 [Example 52, 2,2,2-trifluoroacetate] | > 100 µM |

Query: What measured IC50 goes with CC(C)CN1Cc2nc(N3CC4CCC(C3)O4)nc(-c3ccc(NC(=O)NCCO)cc3)c2C1 [Example 48, 2,2,2-trifluoroacetate] ?
Result: > 100 µM

Query: Next entry: "C[C@H]1COCCN1c1nc2c(c(-c3ccc(NC(=O)NC4CC4)cc3)n1)CN(C)C2"
Result: 10 to 100 µM

Query: Next entry: "C[C@H]1COCCN1c1nc2c(c(-c3ccc(NC(=O)NC4CC4)cc3)n1)CN(C1CC1)C2"
Result: > 100 µM

Query: Next entry: "CC(=O)N1Cc2nc(N3CCOC[C@@H]3C)nc(-c3ccc(NC(=O)NCCO)cc3)c2C1"
Result: 10 to 100 µM

Query: Next entry: O=C(NCCO)Nc1ccc(-c2nc(N3CC4CCC(C3)O4)nc3c2CNC3)cc1 [Example 43, hydrochloride]
Result: > 100 µM

Query: Next entry: "C[C@H]1COCCN1c1nc2c(c(-c3ccc(NC(=O)NC4CC4)cc3)n1)CN(S(C)(=O)=O)C2"
Result: > 100 µM

Query: Next entry: "C[C@H]1COCCN1c1nc2c(c(-c3ccc(NC(=O)Nc4ccncc4)cc3)n1)CNC2"
Result: 10 to 100 µM

Query: Next entry: "C[C@H]1COCCN1c1nc2c(c(-c3ccc(NC(=O)NC4CC4)cc3)n1)CN(C(=O)CCCN(C)C)C2"
Result: 10 to 100 µM

###

# reported IC50; entries follow
Molecular target: PI3Kβ (Homo sapiens, UniProt P42338)
Construct: endogenous in cells; host or cells: Jurkat (ATCC TIB-152, clone E6-1) and Ramos (ATCC CRL-1596), 1:1 lysate mix
Assay: kinobeads assay, PI3Kβ
Format: binding
Details: 1:1 mix of Jurkat and Ramos cell lysates, read-out: Inhibition values (IC50 in μM) as determined in the kinobeads assay, PI3Kβ

| compound_string | IC50 |
| --- | --- |
| C[C@H]1COCCN1c1nc2c(c(-c3ccc(NC(=O)Nc4ccncc4)cc3)n1)CNC2 | 10 to 100 µM |
| C[C@H]1COCCN1c1nc2c(c(-c3ccc(NC(=O)NC4CC4)cc3)n1)CN(C(=O)CCCN)C2 | 10 to 100 µM |
| COCC(=O)N1Cc2nc(N3CCOC[C@@H]3C)nc(-c3ccc(NC(=O)NC4CC4)cc3)c2C1 | 10 to 100 µM |
| O=C(Nc1ccc(-c2nc(N3CCOCC3)nc3c2CNC3)cc1)NC1CC1 | 10 to 100 µM |
| C[C@H]1COCCN1c1nc2c(c(-c3ccc(NC(=O)NC4CC4)cc3)n1)CN(S(=O)(=O)C1CC1)C2 | > 100 µM |
| C[C@H]1COCCN1c1nc2c(c(-c3ccc(NC(=O)NC4CC4)cc3)n1)CN(C(=O)CO)C2 | 10 to 100 µM |

Query: # query: IC50 | item "CC(=O)N1Cc2nc(N3CCOC[C@@H]3C)nc(-c3ccc(NC(=O)NC4CC4)cc3)c2C1" | system: PI3Kβ (Homo sapiens, UniProt P42338)
Result: 10 to 100 µM

Query: Next entry: "CCNC(=O)N1Cc2nc(N3CCOC[C@@H]3C)nc(-c3ccc(NC(=O)NC4CC4)cc3)c2C1"
Result: > 100 µM

###

# reported IC50; entries follow
Molecular target: DNA-dependent protein kinase (DNA-PK) (Homo sapiens, UniProt P78527)
Construct: endogenous in cells; host or cells: Jurkat (ATCC TIB-152, clone E6-1) and Ramos (ATCC CRL-1596), 1:1 lysate mix
Assay: kinobeads assay, DNA-PK
Type: binding
Conditions: 1:1 mix of Jurkat and Ramos cell lysates, read-out: Inhibition values (IC50 in μM) as determined in the kinobeads assay, DNA-PK

| compound | measured_on | IC50 |
| --- | --- | --- |
| CC(=O)N1Cc2nc(N3CCOC[C@@H]3C)nc(-c3ccc(NC(=O)NCCO)cc3)c2C1 | DNA-dependent protein kinase (DNA-PK) (Homo sapiens, UniProt P78527) | 10 to 100 µM |
| CCNC(=O)Nc1ccc(-c2nc(N3CCOCC3)nc3c2CNC3)cc1 | DNA-dependent protein kinase (DNA-PK) (Homo sapiens, UniProt P78527) | 10 to 100 µM |

Query: What measured IC50 goes with "C[C@H]1COCCN1c1nc2c(c(-c3ccc(NC(=O)NC4CC4)cc3)n1)CN(C)C2" ?
Result: 10 to 100 µM

###

Target: PI3Kγ (Homo sapiens, UniProt P48736)
Construct: endogenous in cells; host or cells: Jurkat (ATCC TIB-152, clone E6-1) and Ramos (ATCC CRL-1596), 1:1 lysate mix
Test: kinobeads assay, PI3Kγ
Type: binding
Details: 1:1 mix of Jurkat and Ramos cell lysates, read-out: Inhibition values (IC50 in μM) as determined in the kinobeads assay, PI3Kγ
Description: The compounds of the present invention as described were tested in the mTOR kinobeads assay as described below. […] Bound proteins were then eluted and the presence of mTOR, PI3Kα, PI3Kβ, PI3Kγ, PI3Kδ and DNA-dependent protein kinase (DNA-PK) was detected and quantified using a specific antibody in a dot blot procedure and the Odyssey infrared detection system. Dose response curves for individual kinases were generated and IC50 values calculated. […]
readout_kind: IC50

Consider the reported IC50 for these compounds:
| compound | IC50 |
| --- | --- |
| CS(=O)(=O)N1Cc2nc(N3CC4CCC(C3)O4)nc(-c3ccc(NC(=O)NC4CC4)cc3)c2C1 | > 100 µM |
| CC(C)N1Cc2nc(N3CCOC[C@@H]3C)nc(-c3ccc(NC(=O)NCCO)cc3)c2C1 [Example 34, 2,2,2-trifluoroacetate] | 10 to 100 µM |

Query: What measured IC50 goes with C[C@H]1COCCN1c1nc2c(c(-c3ccc(NC(=O)NC4CC4)cc3)n1)CN(C(N)=O)C2 [Example 42, 2,2,2-trifluoroacetate] ?
Result: > 100 µM

Query: Next entry: "C[C@@H]1COCCN1c1nc2c(c(-c3ccc(NC(=O)NC4CC4)cc3)n1)CNC2"
Result: > 100 µM

Query: Next entry: "CCNC(=O)N1Cc2nc(N3CCOC[C@@H]3C)nc(-c3ccc(NC(=O)NC4CC4)cc3)c2C1"
Result: > 100 µM

Query: Next entry: C[C@H]1COCCN1c1nc2c(c(-c3ccc(NC(=O)NC4CC4)cc3)n1)CN(C(=O)C1CCOC1)C2 (stereo partly drawn) [Example 40, 2,2,2-trifluoroacetate]
Result: > 100 µM

Query: Next entry: "O=C(Nc1ccc(-c2nc(N3CC4CCC(C3)O4)nc3c2CNC3)cc1)NC1CC1"
Result: > 100 µM

Query: Next entry: "C[C@H]1COCCN1c1nc2c(c(-c3ccc(NC(=O)NCCO)cc3)n1)CN(C1CCCCC1)C2"
Result: > 100 µM

Query: Next entry: CC(CO)NC(=O)Nc1ccc(-c2nc(N3CCOC[C@@H]3C)nc3c2CN(C(C)C)C3)cc1 (stereo partly drawn) [Example 51, 2,2,2-trifluoroacetate]
Result: > 100 µM
